Target: Siglec-2 (CD22) (Homo sapiens)
Sequence (P20273 20-847): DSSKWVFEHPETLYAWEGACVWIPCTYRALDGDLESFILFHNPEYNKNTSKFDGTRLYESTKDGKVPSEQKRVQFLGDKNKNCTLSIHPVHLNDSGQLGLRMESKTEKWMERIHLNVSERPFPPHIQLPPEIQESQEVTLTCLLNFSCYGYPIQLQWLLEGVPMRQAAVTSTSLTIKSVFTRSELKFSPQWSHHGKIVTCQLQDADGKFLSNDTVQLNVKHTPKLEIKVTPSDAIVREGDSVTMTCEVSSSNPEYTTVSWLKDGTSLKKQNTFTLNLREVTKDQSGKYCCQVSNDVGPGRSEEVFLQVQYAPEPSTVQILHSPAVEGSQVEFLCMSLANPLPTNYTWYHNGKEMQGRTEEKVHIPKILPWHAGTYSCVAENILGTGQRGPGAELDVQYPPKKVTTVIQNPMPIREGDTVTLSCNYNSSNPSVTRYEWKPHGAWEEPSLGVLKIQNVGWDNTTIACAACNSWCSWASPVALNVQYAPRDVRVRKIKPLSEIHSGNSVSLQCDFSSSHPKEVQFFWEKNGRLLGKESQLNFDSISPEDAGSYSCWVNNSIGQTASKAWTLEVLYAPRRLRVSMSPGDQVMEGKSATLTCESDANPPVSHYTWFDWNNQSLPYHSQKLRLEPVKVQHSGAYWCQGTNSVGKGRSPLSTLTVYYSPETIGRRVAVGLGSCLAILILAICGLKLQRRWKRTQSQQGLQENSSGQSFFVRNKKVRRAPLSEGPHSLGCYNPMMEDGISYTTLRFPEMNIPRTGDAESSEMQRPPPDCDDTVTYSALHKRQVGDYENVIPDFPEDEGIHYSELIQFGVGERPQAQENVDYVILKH
Assay: new affinity assay: displacement of biotinylated compound 155 from sialidase-treated Daudi cells, FACS with streptavidin-PE
Type: binding
Set-up: endogenous in cells; host or cells: Daudi (human B-cell lymphoma line)
Settings: Table II; rIP values set relative to compound 38; Daudi cells, displacement of compound 155
PARAMETER MEASURED: rIP
Keep it simple and answer with nothing but the number.

Asked: Retrieve rIP measured for CC(=O)N[C@H]1[C@H]([C@H](O)[C@H](O)CNC(=O)c2cc3ccccc3s2)O[C@@](OCCCSCCNC(=O)c2ccc(C(=O)NCCSCCCO[C@]3(C(=O)[O-])C[C@H](O)[C@@H](NC(C)=O)[C@H]([C@H](O)[C@H](O)CNC(=O)c4cc5ccccc5s4)O3)cc2)(C(=O)[O-])C[C@@H]1O.[Na+].[Na+] [Compound 70] and print it.
Given back: 137

Asked: Write down rIP measured for item CC(=O)N[C@H]1[C@H]([C@H](O)[C@H](O)CNC(=O)c2ccc(-c3ccccc3)cc2)O[C@](C(=O)[O-])(n2cc(CCCCNC(=O)c3ccc(C(=O)NCCCCc4cn([C@]5(C(=O)[O-])C[C@H](O)[C@@H](NC(C)=O)[C@H]([C@H](O)[C@H](O)CNC(=O)c6ccc(-c7ccccc7)cc6)O5)nn4)cc3)nn2)C[C@@H]1O.[Na+].[Na+] [Compound 110]
Given back: 12

Asked: Quote rIP reported for CC(=O)N[C@H]1[C@H]([C@H](O)[C@H](O)CNC(=O)c2ccc(-c3ccccc3)cc2)O[C@@](OCCCSCC(NC(=O)c2ccc(C(=O)NC(CSCCCO[C@]3(C(=O)[O-])C[C@H](O)[C@@H](NC(C)=O)[C@H]([C@H](O)[C@H](O)CNC(=O)c4ccc(-c5ccccc5)cc4)O3)C(=O)[O-])cc2)C(=O)[O-])(C(=O)[O-])C[C@@H]1O.[Na+].[Na+].[Na+].[Na+] (stereo partly drawn) [Compound 149] please.
Given back: 378
